Assay: UV absorption spectroscopic data (λmax, ε, E 1%/1 cm) of the merocyanine UV absorbers
Format: physicochemical
Details: Table MC1; in MeOH
The following molecules are listed with their measured λmax [nm] values.
Metric Name: λmax [nm]

| Compound | Metric Name | Value Observed |
| --- | --- | --- |
| CCOC(=O)C(C(=O)OCC)=C1C=C(NCc2ccc(CNC3=CC(=C(C(=O)OCC)C(=O)OCC)CCC3)cc2)CCC1 | λmax [nm] | 392 (MeOH) nm |
| CC(=O)/C(C(=O)NCCNC(=O)/C(C(C)=O)=C1/C=C(N2CCCCC2)CCC1)=C1\C=C(N2CCCCC2)CCC1 | λmax [nm] | 385 (MeOH) nm |
| CN(CCCNC1=CC(=C2C(=O)CC(C)(C)CC2=O)CCC1)CCCNC1=CC(=C2C(=O)CC(C)(C)CC2=O)CCC1 | λmax [nm] | 392 (MeOH) nm |
| CC1(C)CC(NCCNC2=CC(=C(C#N)C#N)CC(C)(C)C2)=CC(=C(C#N)C#N)C1 | λmax [nm] | 361 (MeOH) nm |
| Cc1ccc(S(=O)(=O)/C(C#N)=C\C=C2\OCC(C)(C)N2C)cc1 | λmax [nm] | 374 (MeOH) nm |
| CCCCCCNC(=O)/C(=C1\C=C(NCCCNC2=C/C(=C(\C(=O)NCCCCCC)S(=O)(=O)c3ccccc3)CCC2)CCC1)S(=O)(=O)c1ccccc1 | λmax [nm] | 390 (MeOH) nm |
| CC(=O)/C(C(=O)OCC(C)C)=C1/C=C(NCC(C)(CNC2=C/C(=C(\C(C)=O)C(=O)OCC(C)C)CC(C)(C)C2)CNC2=C/C(=C(\C(C)=O)C(=O)OCC(C)C)CC(C)(C)C2)CC(C)(C)C1 | λmax [nm] | 385 (MeOH) nm |

====

Assay: UV absorption spectroscopic data (λmax, ε, E 1%/1 cm) of the merocyanine UV absorbers
Assay type: physicochemical
Conditions: Table MC3; at λmax

| Compound | ε [L/mol/cm] |
| --- | --- |
| COC(=O)C(=C/C=C/N1CCCCC1)C(=O)OC | 49500 |
| CN(C)/C=C/C=C1C(=O)OC(C)(C)OC1=O | 68000 |
